These data points were gathered from PubChem BioAssay (NCI).

System: SW-620 colon
Assay: NCI-60 one-dose screen, 48 h
Details: 10 µM unless noted
Method: Growth inhibition of the SW-620 human tumor cell line is measured as a screen for anti-cancer activity. Cells are grown in 96 well plates and exposed to the test compound for 48 hours. Compounds are tested at a single concentration, which is 10^-5 M for most compounds. The reported endpoint is percent growth (GI% or GIPRCNT), where numbers from 0 - 100% represent growth inhibition, and numbers from -100% - 0 represent cell death. For example, a value of 40 represents 60% growth inhibition. […]
This is part of a sample that, as a whole, favours compounds with a hit. Of some 83,000 tested, about 20% had one in any assay. Active and inactive are the calls of the source. Rule for the calls: active = growth percent below 10; inactive = the rest.
Select the matching outcome among active, inactive

Answered examples (2):
| molecule | assay target | assigned class |
| --- | --- | --- |
| CCCCn1c(C)nc2ccc(Nc3nc(Cl)nc4nc[nH]c34)cc21 | SW-620 colon | inactive |
| OC(c1cc2cc(Cl)ccc2c2cc(C(F)(F)F)ccc12)C1CCCCN1 (stereo not drawn) | SW-620 colon | active |

Now turn to the next molecule.
Prompt: Hello, I am checking results. What call was entered for COc1ccc([C@@H]2[C@@H](Cl)C(=O)N2c2cc(OC)c(OC)c(OC)c2)cc1C ?
Completion: inactive

====

Test system: SK-OV-3 ovarian
Assay: NCI-60 one-dose screen, 48 h (100 = growth as untreated, 0 = no growth, -100 = all killed)
Settings: 10 µM unless noted
About 83,000 compounds went through this panel and 20% of them were active in at least one assay; those are over-represented in the sample as a whole.
readout type: growth (%)
Numbers only, in %.

Guide cases for growth, answers given:
| compound | growth / % |
| --- | --- |
| COc1cc(Nc2ccnc3ccc(Br)cc23)cc(OC)c1OC | 36.6 |
| CCCCCCCCCC1=NC(C)(C)CN1C(C)(C)CO | 124 |
| Fc1cc(-c2nnc3sc(-c4ccc(Cl)cc4)nn23)c(Cl)cc1Cl | 107 |
| Cc1ccc(NC(=O)c2nc(S(C)(=O)=O)oc2-c2ccc(F)cc2)cc1Nc1ccc2ncn(C)c(=O)c2c1 | 107 |

Prompt: Identify the measured growth of NS(=O)(=O)c1ccc(N2N=C(c3cccs3)CC2c2ccccc2O)cc1 (stereo not given) for SK-OV-3 ovarian.
Completion: 6.78

====

Tested on: CAKI-1 renal
Test: NCI-60 one-dose screen, 48 h
Conditions: 10 µM unless noted
Compounds without any hit were thinned out: in the full panel of roughly 83,000, 20% have a hit. The source made the active and inactive calls. The calls were made as follows: active = growth percent below 10; inactive = the rest.
Select the matching outcome among active, inactive

Answered examples (3):
| compound | assigned class |
| --- | --- |
| N#Cc1nc(-c2ccc(Cl)cc2)cc(-c2ccc(Nc3nc(N4CCCCC4)nc(N4CCCCC4)n3)cc2)c1N | inactive |
| CC1=C(O)C(=O)C(c2c(C)cc(C)c(Br)c2C)=C(O)C1=O | inactive |
| Cc1cc(N=Nc2ccc(-c3ccc(N=Nc4ccc(O)c(C(=O)O)c4)cc3)cc2)c(N)c(N=Nc2ccc(C(=O)O)cc2)c1N | inactive |

Prompt: Hello, I am checking results. What call was entered for CCCCCCCCCCCC1=NC(C)(C)CN1C(C)(C)CO ?
Completion: inactive

Prompt: What do you have for O=C1C(Cl)=C(N/N=c2/[nH][nH]/c(=N/NC3=C(Cl)C(=O)c4ccccc4C3=O)c3ccccc23)C(=O)c2ccccc21 ?
Completion: inactive

Prompt: What do you have for CCCC(CCC)NCC(O)c1cc(-c2ccc(C(F)(F)F)cc2)nc(C(F)(F)F)c1 (configuration not stated) ?
Completion: active

Prompt: What do you have for CC1=NOCC(=O)N1 ?
Completion: inactive

Prompt: What do you have for CN1CCN(Cc2ccc(NC(=O)c3cccc(C#Cc4cnc(N)c5ncccc45)c3F)cc2C(F)(F)F)CC1 ?
Completion: inactive

Prompt: What do you have for Brc1cccc(-n2ncc3c(Nc4ccc(-c5nnc(-c6ccccc6)o5)cc4)ncnc32)c1 ?
Completion: inactive

Prompt: What do you have for O=C(NC1CC1)c1ccc(-c2nc3ccc4[nH]ncc4c3c3c2CCCC3)cc1 ?
Completion: active

Prompt: What do you have for Cc1cc(C)cc(Nc2cc(C)nc3nc(C(F)(F)F)nn23)c1 ?
Completion: inactive

Prompt: What do you have for COc1ccc(NC(=O)C2c3ccccc3C(=O)N(CC(C)C)C2c2cccs2)cc1 (configuration not stated) ?
Completion: inactive

====

Tested on: COLO 205 colon
Experiment: NCI-60 one-dose screen, 48 h (100 = growth as untreated, 0 = no growth, -100 = all killed)
Settings: 10 µM unless noted
About 83,000 compounds went through this panel and 20% of them were active in at least one assay; those are over-represented in the sample as a whole.
readout type: growth (%)
Numbers only, in %.

| compound | value units | growth |
| --- | --- | --- |
| CN1CCN(c2ccc(N3Cc4ccccc4OC4=C3C(=O)c3c(O)ccc(O)c3C4=O)cn2)CC1 | % | -77.1 |
| N#Cc1c(N)c(C(=O)c2ccc3c(c2)OCCO3)n2c1CCCC2 | % | 14.9 |

For each of the items listed, what is its growth?
1. COC(=O)C1(C)COP(=O)(NC23CC4CC(CC(C4)C2)C3)OC1 (stereo not given)
2. CCc1ccc2c(c1)N(CCO)C1=C(C(=O)OC1)C2c1cccc(Br)c1 (stereo not given)
3. CC(=O)c1c(O)c(C)c(O)c2c1OC1=CC(=O)/C(=C(/C)N)C(=O)C12C (stereo not given)
4. CCOC(CN1CCN(CC(C)C(=O)c2ccccc2)CC1)c1ccccc1 (stereo not given)
5. COc1cc2nccc(Oc3ccc(NC(=O)C4(C(=O)Nc5ccc(F)cc5)CC4)cc3)c2cc1Oc1ccc(N)cn1
6. Cc1ccc(/C=C/C(=N/N=C(N)N)c2ccccc2)cc1

Completion:
[103, 5.9, 95.8, 107, 8.91, -16.4]

For each of the items listed, what is its growth?
1. CCCCn1c(C)nc2cc(Nc3nc(Cl)nc4nc[nH]c34)ccc21
2. CCCCOc1ncnc2nc[nH]c12
3. CCOC(=O)NNc1cccc(Cl)c1

Completion:
89.7
110
123

For each of the items listed, what is its growth?
1. Cc1ccc(CSCc2ccc(C(=O)NC3CC3)o2)cc1
2. COc1ccc(/C=C2\CCCC3=C2N=C2SC(C)=NN2C3c2ccc(OC)c(OC)c2)cc1OC (stereo not given)
3. Cc1cc(O)c(C2=NN(c3ccc(S(N)(=O)=O)cc3)C(c3ccc(Cl)cc3)C2)c(C)c1Cl (stereo not given)
4. CC(=O)N1N=C(c2ccc(C)cc2)CC1c1cn(-c2ccccc2)nc1-c1cccc(Nc2ccnc3cc(Cl)ccc23)c1 (stereo not given)

Completion:
1. 63.7
2. 22.2
3. 30.8
4. 93.8

For each of the items listed, what is its growth?
1. O=[N+]([O-])c1cccc([I+]c2ccccc2)c1
2. CNC(=O)c1cc(Oc2ccc(NC(=O)c3[nH]c(SC)nc3-c3ccc(F)cc3)cc2)ccn1
3. CCN(CC)CCCNc1cccc2c(C)cc(OC)nc12
4. CC(=O)[C@@]1(O)[C@H](C)C[C@H]2[C@@H]3C=C(C)C4=Cc5c(cnn5-c5ccccc5)C[C@]4(C)[C@H]3[C@@H](O)C[C@@]21C
5. COc1ccc2nc(C)cc(Nc3ccccc3O)c2c1
6. COc1cc(NC(C)CCCN)c2ncccc2c1Oc1ccc(Cl)cc1 (stereo not given)

Completion:
1. 40.1
2. 7.33
3. 87.4
4. -23.8
5. 89.9
6. 6.98

For each of the items listed, what is its growth?
1. CC(=O)OC1Oc2cc(C)c(C)cc2-c2oc(=O)c(-c3cc4ccccc4oc3=O)cc21 (stereo not given)
2. CCCCCCCCCCCCCCCCS(=O)(=O)Nc1cc(C(=O)NN)cc(C(=O)NN)c1
3. CN1CCN(Cc2ccc(NC(=O)c3cncc(C#Cc4ncc5cnccn45)c3)cc2C(F)(F)F)CC1

Completion:
[121, 83.2, 17]

For each of the items listed, what is its growth?
1. CN(C)CCOc1nc2c3cccnc3cc(-c3cccc(Cl)c3)c2c2ncccc12
2. N#CC1=C(N)Oc2nc[nH]c(=O)c2C1c1cccs1 (stereo not given)
3. O=c1[nH]c2ccccc2n2cc3cccnc3c12
4. CCCCCCCCCC1=NC(C)(C)CN1C(C)(C)CO

Completion:
1: -65.4; 2: 106; 3: 70; 4: 184

For each of the items listed, what is its growth?
1. COc1ccc(C(=O)/C=C/c2cn(-c3ccccc3)nc2-c2cccc(Nc3ccnc4cc(Cl)ccc34)c2)cc1
2. Cc1cc(-c2nnc(/C=C/c3ccc4c(c3)OCO4)o2)n[nH]1

Completion:
1: 102; 2: 61.6

====

Answer each item with its documented growth.
System: SF-539 CNS
Assay: NCI-60 one-dose screen, 48 h (100 = growth as untreated, 0 = no growth, -100 = all killed)
Settings: 10 µM unless noted
Compounds without any hit were thinned out: in the full panel of roughly 83,000, 20% have a hit.
Numbers only, in %.

| chemical smiles | readout type | value units | value |
| --- | --- | --- | --- |
| CC(C)(C)CC(C)(C)NCc1cc(C(C)(C)C)cc(CNC(C)(C)CC(C)(C)C)c1O | growth | % | 83.8 |
| COc1ccc(/C=C(/C(=O)N2CCN(c3ccccc3)CC2)c2cc(OC)c(OC)c(OC)c2)cc1N | growth | % | -17.4 |
| Nc1nc(N)c2cc(Sc3ccc(Cl)cc3)ccc2n1 | growth | % | 35 |
| CN(C)c1ccc(/C=C(\C#N)c2nc3ccccc3n2C)cc1 | growth | % | 11.6 |
| Nc1nc2ccc([C@@H]3Nc4ccc5[nH]ncc5c4[C@H]4[C@H]5CCC(C5)[C@H]43)cc2s1 | growth | % | 0.597 |
| COc1cc2cc(C(=O)Nc3ccccc3)c(N)nc2cc1OC | growth | % | 34.3 |

Next, consider the following compound.
Prompt: Quick one: growth for C/C(=N\OC(=O)Nc1cccc(Cl)c1)c1ccccc1 ?
Completion: 104
